# TARGET: full-length beta-Catenin (Uniprot ID P35222) (Homo sapiens (Human)) (UniProt P35222)
# TEST DETAILS: fluorescence polarization competition; full-length beta-catenin, competitor 5FAM-TCF4(10-53) probe
Starred links: 1 amine or outer side, 2 acyl side, 3 side chain; linkers in the order of their positions; H or OH if unused. Positions of bridges follow the written chain, without caps; N, C: chain ends. Non-standard residues stand in square brackets, D forms with d. Primed or numbered codes have the meaning given here. PyrS2″ = (S)-3-amino-1-((pent-4-en-1-yloxy)carbonyl)pyrrolidine-3-carboxylic acid (stapling residue), C=CCCCOC(=O)N1CC[C@@](N[*:1])(C(=O)[*:2])C1; B5(4) = 2,2-bis(4-pentenyl)glycine = 2-amino-2-(pent-4-en-1-yl)hept-6-enoic acid (stitching residue), C=CCCCC(CCCC=C)(N[*:1])C(=O)[*:2]; B5(5) = 2,2-bis(4-pentenyl)glycine, 2-amino-2-(pent-4-en-1-yl)hept-6-enoic acid (stitching residue), C=CCCCC(CCCC=C)(N[*:1])C(=O)[*:2]; TfeGA = (S)-2-amino-3-((carboxymethyl)(2,2,2-trifluoroethyl)amino)propanoic acid, O=C([C@H](CN(CC(=O)[*:3])CC(F)(F)F)N[*:1])[*:2]; B5(31) = 2-amino-2-(pent-4-en-1-yl)hept-6-enoic acid (bis-pentenylglycine, stitching residue), C=CCCCC(CCCC=C)(N[*:1])C(=O)[*:2]; PyrS2 = (S)-3-amino-1-((pent-4-en-1-yloxy)carbonyl)pyrrolidine-3-carboxylic acid, C=CCCCOC(=O)N1CC[C@@](N[*:1])(C(=O)[*:2])C1; (3C)TriAzLys = (S)-2-amino-6-(4-propyl-1H-1,2,3-triazol-1-yl)hexanoic acid, CCCc1cn(CCCC[C@H](N[*:1])C(=O)[*:2])nn1; Ala(1H-tetrazol-5-yl) = N[C@@H](Cc1nnn[nH]1)C(=O)O; Phe(3-COOH) = N[C@@H](Cc1cccc(C(=O)O)c1)C(=O)O; Phe(2-CF3) = N[C@@H](Cc1ccccc1C(F)(F)F)C(=O)O; Bta = N[C@@H](Cc1csc2ccccc12)C(=O)O; αAllylPro = C=CC[C@@]1(C(=O)O)CCCN1; tBuAla = CC(C)(C)C[C@H](N)C(=O)O; 3Thi = N[C@@H](Cc1ccsc1)C(=O)O; S8 = C=CCCCCCC[C@](C)(N)C(=O)O; Aib = CC(C)(N)C(=O)O
MEASUREMENT TYPE: log10 IC50 (log10 of the value in nM)
Hello, just confirming the data are log10 of IC50 with units of nM.

Illustrative cases are given below, each with its answer.
Ac-[αAllylPro]DA[B5(4)]D[Ala(1H-tetrazol-5-yl)]AAFN[S8]F[Bta]Q-NH2 (staple 1-4, 4-11) [I-444]    1.90
Ac-[αAllylPro]D[tBuAla][B5(5)]D[Phe(3-COOH)]AAFL[PyrS2][Phe(2-CF3)][Bta]QL[dT]-NH2 (staple 1-4, 4-11) [I-2397]    1.72
Ac-[αAllylPro]E[tBuAla][B5(31)]NTAAFN[PyrS2″][3Thi][Bta]Q-NH2 (staple 1-4, 4-11) [I-2332]    4.00
propiolyl-[αAllylPro]D[tBuAla][B5(5)]DDAAFQ[PyrS2][3Thi][Bta]H-NH2 (staple 1-4, 4-11) [I-2402]    1.20
{2‑(3-(allyloxy)phenyl)acetyl}-PD[tBuAla][B5(5)]D[TfeGA]AAFL[PyrS2][3Thi][Bta]Q-NH2 (staple 4-11, N-4; also: staples hydrogenated, -CH=CH- reduced to -CH2-CH2-) [I-2405]    2.75
Ac-[αAllylPro]D[tBuAla][B5(4)]DTAAFL[PyrS2″][3Thi][Bta]S-NH2 (staple 1-4, 4-11) [I-1171]    1.85

Exercise: Given the entry Ac-[αAllylPro]DL[B5(5)]DEAAFN[S8]F[Bta]H[Aib]-NH2 (staple 1-4, 4-11) [I-743] , report its measured log10 IC50.
Solution: 1.93

Exercise: Entry under review: Ac-[αAllylPro]D[tBuAla][B5(5)]D[Phe(3-COOH)]AAFL[PyrS2″][Phe(2-CF3)][Bta]S[(3C)TriAzLys]-NH2 (staple 1-4, 4-11) [I-2432] . Reported log10 IC50?
Solution: 1.78

Exercise: For the binder shown here, Ac-[αAllylPro]D[tBuAla][B5(4)]DDA[Aib]FL[PyrS2″][3Thi][Bta]Q-NH2 (staple 1-4, 4-11) [I-1178] , give the reported log10 IC50.
Solution: 1.74
